Record set: log10(IC50) | Cathepsin S (Homo sapiens, UniProt P25774) | literature, multiple sources.
observed property: log10(IC50) (log10 of the value in nM)

molecule	log10(IC50)
N#CC1(NC(=O)[C@@H]2C[C@@H](S(=O)(=O)c3ccc(F)cc3Cl)CN2C(=O)C2(N3CCCCC3)CC2)CC1	-0.40
N#CC1(NC(=O)[C@@H]2C[C@@H](S(=O)(=O)c3ccccc3Cl)CN2C(=O)C2CCN2C2CCSCC2)CC1 (stereo partly shown)	0.34
N#CC1(NC(=O)[C@@H]2C[C@@H](S(=O)(=O)c3ccccc3)C[C@H]2C(=O)N2CCNCC2)CC1	1.04
Cc1nnn(-c2ccc(S(=O)(=O)[C@@H]3C[C@@H](C(=O)NC4(C#N)CC4)N(C(=O)C4(C(F)(F)F)CC4)C3)c(C(F)(F)F)c2)n1	-0.25
CCN(CC)C(=O)[C@@H]1C[C@H](S(=O)(=O)c2ccccc2)C[C@H]1C(=O)NC1(C#N)CC1	0.41
CC(C)[C@H](NC(=O)[C@@H]1C[C@@H](S(=O)(=O)c2ccccc2Cl)CN1C(=O)C1(c2ccc(Cl)cc2)CC1)C(=O)C(=O)NC1CC1	-0.48
CC(C)C[C@H](N[C@@H](c1ccc(-c2ccc(S(C)(=O)=O)cc2)cc1)C(F)(F)F)C(=O)N1C[C@H](F)[C@H]2OCC(=O)[C@H]21	4.56
CO[C@@H]1C[C@H](S(=O)(=O)c2ccc(-c3ccc(F)c(F)c3)cc2C(F)(F)F)C[C@H]1C(=O)NC1(C#N)CC1 (racemic)	-0.15
N#CC1(NC(=O)C2(NC(=O)c3cc4ccc(-c5ccc(-n6cncn6)cc5)cc4o3)CCC(F)(F)CC2)CC1	3.40
CC(C)C[C@H](NC(=O)[C@@H]1C[C@@H](S(=O)(=O)c2ccccc2Cl)CN1C(=O)C1(c2ccc(Cl)cc2)CC1)C(=O)C(=O)NC1CC1	0.10
N#CC1(NC(=O)[C@@H]2C[C@@H](S(=O)(=O)c3ccc(-n4ccnn4)cc3C(F)(F)F)CN2C(=O)C2(C(F)(F)F)CC2)CC1	-0.42
N#CC1(NC(=O)C2(NC(=O)c3cc4ccc(-c5ccc(C(O)C6(O)CC6)cc5)cc4o3)CCC(F)(F)CC2)CC1 (stereo not shown)	2.79
C[C@@H]1CN(C(=O)[C@@H]2C[C@H](S(=O)(=O)c3ccccc3)C[C@H]2C(=O)NC2(C#N)CC2)C[C@H](C)O1	-0.40

====

Record set: pIC50 | UniProt:P25774 | literature, multiple sources.
pIC50: −log10 of the molar value.
Entry flag: yes if pIC50 reaches 9; no if it does not.

molecule	cat
COC[C@@H]1C[C@H](S(=O)(=O)c2ccccc2Cl)C[C@H]1C(=O)NC1(C#N)CC1 (single isomer, unassigned)	no
Cc1cc(Cl)ccc1S(=O)(=O)[C@@H]1C[C@@H](C(=O)NC(C#N)c2ccccc2)[C@H](C(=O)N2CCOCC2)C1 (stereo partly drawn)	yes
CCC[C@H](NC(=O)[C@@H]1C[C@@H](S(=O)(=O)c2ccc(O[C@@H](C)C(F)(F)F)cc2Cl)CN1C(=O)C1(c2ccc(Cl)cc2)CC1)C(=O)C(=O)NC1CC1	no
N#CC1(NC(=O)C2(NC(=O)c3cc4ccc(-c5ccc(C6(O)CCOCC6)cc5)cc4o3)CCC(F)(F)CC2)CC1	no
CSc1ccc(-c2ccc([C@H](N[C@@H](CC(C)C)C(=O)N3C[C@H](F)[C@H]4OCC(=O)[C@H]43)C(F)(F)F)cc2)cc1	no
CC[C@H](NC(=O)[C@@H]1C[C@@H](S(=O)(=O)c2ccc(F)cc2C(F)(F)F)CN1c1cc(C)nn1C1CCC1)C(=O)C(=O)NC1CC1	no
COc1cc(-c2ccc3cc(C(=O)NC4(C(=O)NC5(C#N)CC5)CCC(F)(F)CC4)oc3c2)ccc1OC(F)F	no
N#CC1(NC(=O)C2(NC(=O)c3cc4ccc(-c5ccc(C6(O)COC6)cc5)cc4o3)CCCCC2)CC1	no
Cc1ccc(S(=O)(=O)[C@@H]2C[C@@H](C(=O)NC3(C#N)CC3)[C@H](C(=O)N3CCC(F)(F)C3)C2)c(Cl)c1	yes
CCO[C@@H]1C[C@H](S(=O)(=O)c2ccc(-c3cnn(C)c3)cc2C(F)(F)F)C[C@H]1C(=O)NC1(C#N)CC1 (racemic)	yes
CC[C@H](NC(=O)[C@@H]1C[C@@H](S(=O)(=O)c2ccc(OCC(F)(F)F)cc2Cl)CN1C(=O)C1(c2ncc(Cl)cc2F)CC1)C(=O)C(=O)NC1CC1	no
CCNC(=O)Cn1cc(-c2ccc(S(=O)(=O)[C@H]3C[C@@H](OC)[C@H](C(=O)NC4(C#N)CC4)C3)c(C(F)(F)F)c2)cn1 (racemic)	yes
CO[C@@H]1C[C@H](S(=O)(=O)c2ccc(-c3ccc(S(C)(=O)=O)cc3)cc2C(F)(F)F)C[C@H]1C(=O)NC1(C#N)CC1 (racemic)	yes
CC(C)N1CCC(CCOc2ncc(-c3nc(C#N)nc4c3ncn4C)cc2C(F)(F)F)CC1	no
CO[C@@H]1C[C@H](S(=O)(=O)c2ccc(-n3cc(C)cn3)cc2Cl)C[C@H]1C(=O)NC1(C#N)CC1 (racemic)	no

====

Record set: IC50 | Cathepsin S (Homo sapiens, UniProt P25774) | literature, multiple sources.

molecule	test system	unit name	result comparator	IC50
CCN1CCC(C#N)(NC(=O)[C@@H]2C[C@@H](S(=O)(=O)c3ccc(-c4cnn(C)c4)cc3C(F)(F)F)C[C@H]2OC)CC1 (racemic)	Cathepsin S (Homo sapiens, UniProt P25774)	nM	=	2.35
CO[C@@H]1C[C@H](S(=O)(=O)c2ccc(-c3cnn(CC(=O)N(C)C)c3)cc2C(F)(F)F)C[C@H]1C(=O)NC1(C#N)CC1 (racemic)	Cathepsin S (Homo sapiens, UniProt P25774)	nM	=	0.92
N#CC1(NC(=O)C2(NC(=O)c3cc4ccc(-c5ccc6c(c5)OCCO6)cc4o3)CCC(F)(F)CC2)CC1	Cathepsin S (Homo sapiens, UniProt P25774)	nM	>	10000
CCC[C@H](NC(=O)[C@@H]1C[C@@H](S(=O)(=O)c2ccc(N3CCOCC3)cc2Cl)CN1C(=O)C1(c2ccc(Cl)cc2)CC1)C(=O)C(=O)NC1CC1	Cathepsin S (Homo sapiens, UniProt P25774)	nM	=	3.33
N#CC1(NC(=O)C2(NC(=O)c3cc4ccc(-c5ccc(-n6cn[nH]c6=O)cc5)cc4o3)CCC(F)(F)CC2)CC1	Cathepsin S (Homo sapiens, UniProt P25774)	nM	=	1500
N#CC1(NC(=O)[C@@H]2C[C@@H](S(=O)(=O)c3ccc(OCC(F)(F)F)cc3Cl)CN2C(=O)C2(c3ccc(Cl)cn3)CC2)CC1	Cathepsin S (Homo sapiens, UniProt P25774)	nM	=	0.825
N#CC1(NC(=O)[C@@H]2C[C@@H](S(=O)(=O)c3ccccc3C(F)(F)F)C[C@H]2OCc2ccc(Cl)cc2)CC1 (racemic)	Cathepsin S (Homo sapiens, UniProt P25774)	nM	=	1.85
N#CC1(NC(=O)[C@@H]2C[C@@H](S(=O)(=O)c3ccccc3Cl)C[C@H]2OCc2ccc(Br)cc2)CC1 (racemic)	Cathepsin S (Homo sapiens, UniProt P25774)	nM	=	7.55
N#CC1(NC(=O)C2(NC(=O)c3cc4ccc(-c5csc(-n6cncn6)n5)cc4o3)CCC(F)(F)CC2)CC1	Cathepsin S (Homo sapiens, UniProt P25774)	nM	=	416
CCOC(=O)N1CCC(N2CCC2C(=O)N2C[C@H](Sc3ccccc3OC(F)(F)F)C[C@H]2C(=O)NC2(C#N)CC2)CC1 (stereo partly shown)	Cathepsin S (Homo sapiens, UniProt P25774)	nM	=	65.5
N#CC1(NC(=O)[C@@H]2C[C@@H](S(=O)(=O)c3ccc(F)cc3Cl)C[C@H]2C(=O)N2CC(F)(F)C2)CC1	Cathepsin S (Homo sapiens, UniProt P25774)	nM	=	6.1
CC[C@H](NC(=O)[C@@H]1C[C@@H](S(=O)(=O)c2ccccc2Cl)CN1C(=O)C1(c2ccc(Cl)cc2)CC1)C(=O)C(=O)NCCc1ccc2ccccc2c1	Cathepsin S (Homo sapiens, UniProt P25774)	nM	=	3.08
CCC[C@H](NC(=O)[C@@H]1C[C@@H](S(=O)(=O)c2ccccc2Cl)CN1C(=O)C1(c2ccc(Cl)cc2)CC1)C(=O)C(=O)NCc1ccccc1	Cathepsin S (Homo sapiens, UniProt P25774)	nM	=	1.21
N#CC1(NC(=O)[C@@H]2C[C@@H](S(=O)(=O)c3ccccc3Cl)CN2C(=O)C2(N3CCNCC3)CC2)CC1	Cathepsin S (Homo sapiens, UniProt P25774)	nM	=	4.2
CCN1CCC(C#N)(NC(=O)[C@@H]2C[C@@H](S(=O)(=O)c3ccccc3C(F)(F)F)C[C@H]2OCc2ccc(Cl)cc2)CC1 (racemic)	Cathepsin S (Homo sapiens, UniProt P25774)	nM	=	6.25
COc1ncc(-c2ccc(S(=O)(=O)[C@@H]3C[C@@H](C(=O)NC4(C#N)CC4)N(C(=O)C4(C(F)(F)F)CC4)C3)cc2)cn1	Cathepsin S (Homo sapiens, UniProt P25774)	nM	=	0.882
CO[C@@H]1C[C@H](S(=O)(=O)c2ccc(-c3ccnnc3)cc2C(F)(F)F)C[C@H]1C(=O)NC1(C#N)CC1 (racemic)	Cathepsin S (Homo sapiens, UniProt P25774)	nM	=	0.6
CC1CCCN(C2(C(=O)N3C[C@H](S(=O)(=O)c4ccccc4Cl)C[C@H]3C(=O)NC3(C#N)CC3)CC2)C1 (stereo partly shown)	Cathepsin S (Homo sapiens, UniProt P25774)	nM	=	0.4
Cc1nnnn1-c1ccc(S(=O)(=O)[C@@H]2C[C@@H](C(=O)NC3(C#N)CC3)N(C(=O)C3(C(F)(F)F)CC3)C2)c(Cl)c1	Cathepsin S (Homo sapiens, UniProt P25774)	nM	=	0.683
N#CC1(NC(=O)[C@@H]2C[C@@H](S(=O)(=O)c3ccccc3Cl)CN2C(=O)C2CCN2C2CCCC2)CC1 (stereo partly shown)	Cathepsin S (Homo sapiens, UniProt P25774)	nM	=	2
Cc1cc(C(F)(F)F)nn1-c1ccc(S(=O)(=O)[C@@H]2C[C@@H](C(=O)NC3(C#N)CC3)N(C(=O)C3(C(F)(F)F)CC3)C2)c(C(F)(F)F)c1	Cathepsin S (Homo sapiens, UniProt P25774)	nM	=	1.12
COc1ccc([C@H](N[C@@H](CC(F)(F)CC2CC2)C(=O)NC2(C#N)CC2)C(F)(F)F)cc1	Cathepsin S (Homo sapiens, UniProt P25774)	nM	<	10
CC(C)(C)N1CCN(c2ccc(S(=O)(=O)[C@@H]3C[C@@H](C(=O)NC4(C#N)CC4)[C@H](C(=O)N4CC(F)(F)C4)C3)c(C(F)(F)F)c2)CC1	Cathepsin S (Homo sapiens, UniProt P25774)	nM	=	0.4
CCCCNC(=O)C(=O)[C@H](CC)NC(=O)[C@@H]1C[C@@H](S(=O)(=O)c2ccccc2Cl)CN1C(=O)C1(c2ncc(Cl)cc2F)CC1	Cathepsin S (Homo sapiens, UniProt P25774)	nM	=	2.87
